Attribute: protein stability index
B1: FUNDC2 (parent)
chain: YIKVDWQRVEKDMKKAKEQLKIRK

# Variants of: B1
# method-notes: protein stability index of a GFP-peptide fusion (GPS, HEK-293T) (PSI 1-6); higher = more stable;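 also: lentivirally expressed fusions sorted by FACS into six bins by GFP to DsRed ratio, PSI derived from sequencing read proportions per bin multiplied by bin number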
# particulars: c terminus: a fixed tail appended
reported-metric: protein stability index

1. K24D	2.02
2. V4D	1.99
3. Q19E	2.68
4. D12T	1.74
5. K14W	2.1
6. I2V	1.83
7. K21R	2
8. D12M	2.97
9. R23F	1.57
